The reported measurements were obtained from paper PMC12136788.

Target: T1, UNK ZnF1-3 (human, UniProt Q9C0B0 31-174)
T1 sequence: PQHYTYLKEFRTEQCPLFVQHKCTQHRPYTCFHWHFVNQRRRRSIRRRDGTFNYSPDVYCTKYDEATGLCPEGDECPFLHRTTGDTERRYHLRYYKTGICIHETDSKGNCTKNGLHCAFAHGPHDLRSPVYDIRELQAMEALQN
Experiment: nsRBNS (natural sequence RNA bind-n-seq); RBNS binding buffer (assumed for nsRBNS): 25 mM Tris pH 7.5, 150 mM KCl, 3 mM MgCl2, 0.01% Triton X-100, 500 ug/ml BSA, 20 U/ml SUPERase-In, 4 C; UNK is unkempt and MSI1 is Musashi-1; names of the RNAs are library labels; protein concentration not given here; high values mean tight binding
In all, about 24,000 sequences were measured (“enrichment r”: median about 0.99, highest 2% from about 3.7 on). Many of the other results were omitted from the sample, so the highest values are more common in it than they were.

{"binder": "chrX:40988281:40988282:+_ENSG00000124486_ENST00000378308|hu_hu|FALSE|FALSE (ssRNA) RNA: GGGAGUUCUACAGUCCGACGAUCUUCAAGCUGUGGUGGGGCAUCACCUUGACCUUGCUCAUCUGGGGGAGUUGCCGGGGAAUUUUCAUUGGAAGAAUCAGGCGAUGAAGUCUGAUUCUGUUGGAGGGGGGGCUGAGACUGUCCCAACAGAGGAUUGAGCAUCA", "unit.string": "enrichment R", "binding signal": 1.24}
{"binder": "chr16:94664806:94664807:+_ENSMUSG00000040785_ENSMUST00000117648|mus_hu|motif|central (ssRNA) RNA: GGGAGUUCUACAGUCCGACGAUCAUGAUGACCCUCAAAAUAGGCAGCAGCAUUUUUAUCUGCUCUGUCAUUGGCGGCAAAAGACGGCACCACUGGUACUGAUCUUGGUAGCUGAUAUUCAGGAGAAAGGCUGGCCAAGGGUGUCAACAGAGGAUUGAGCAUCA", "unit.string": "enrichment R", "binding signal": 1.61}
{"binder": "44559432_44560298_1111_3pUTR_ENSMUSG00000032096_ENSMUST00000034607|mouse|control|control (ssRNA) RNA: GGGAGUUCUACAGUCCGACGAUCACAUUUGGAUGCGUCUGUAGCUGCACCCCUUUCUUAUCUUCAUUUUCUACAUGAAGACGAAUCCGGCCAAAUUUGUCAUCUGAGAUCCUAAGCAUGAUCAUGCCAUGCAACUCCAUAUUCCAACAGAGGAUUGAGCAUCA", "unit.string": "enrichment R", "binding signal": 0.578}
{"binder": "chr14:76904430:76904431:+_ENSMUSG00000022010_ENSMUST00000022587|mus_mus|mus_mus_mus_hu_True|88_98 (ssRNA) RNA: GGGAGUUCUACAGUCCGACGAUCUGCAGCCAAAAACAGAGAGAGGGCGGGAGGGAGGGAACACCAGCAGCCUUGUAUAAGCUAGAUAAAAUCUUCUGGCUUUCCGCAGCCCAGGGAGAAACAGAAAACGGCAGCCCUAAUUUACAACAGAGGAUUGAGCAUCA", "unit.string": "enrichment R", "binding signal": 3.29}
{"binder": "chr14:76904430:76904431:+_ENSMUSG00000022010_ENSMUST00000022587|mus_mus|mus_mus_mus_hu_True|98_98 (ssRNA) RNA: GGGAGUUCUACAGUCCGACGAUCUGCAGCCAAAAACAGAGAGAGGGAAAAAAAGAGGGAACACCAGCAGCCUUGUAUAAGCUAGAUAAAAUCUUCUGGCUUUCCGCAGCCCAGGGAGAAACAGAAAACGGCAGCCCUAAUUUACAACAGAGGAUUGAGCAUCA", "unit.string": "enrichment R", "binding signal": 4.46}
{"binder": "chr1:95363480:95363481:-_ENSG00000117519_ENST00000538964|hu_mus|FALSE|FALSE (ssRNA) RNA: GGGAGUUCUACAGUCCGACGAUCCGUGCCCUGGCUUCCGUUGUGAAUGACAGGUUCUGUGGGUGCGGCACAGUACUUGGGGUCAUAUACUUGCCGCCCAAGCCCAUACACGCUCAUUCCUUUCUGGGAAGCAACUUUGUUGGUCAACAGAGGAUUGAGCAUCA", "unit.string": "enrichment R", "binding signal": 0.529}
{"binder": "chr14:76904430:76904431:+_ENSMUSG00000022010_ENSMUST00000022587|mus_mus|mus_mus_mus_hu_True|98_108 (ssRNA) RNA: GGGAGUUCUACAGUCCGACGAUCUGCUGGAAAAAAAAGAGAGAGGGAAAAAAAGAGGGAACACCAGCAGCCUUGUAUAAGCUAGAUAAAAUCUUCUGGCUUUCCGCAGCCCAGGGAGAAACAGAAAACGGCAGCCCUAAUUUACAACAGAGGAUUGAGCAUCA", "unit.string": "enrichment R", "binding signal": 3.93}
